# Test system: BT-549
# Measurement Notes: Cytotoxicity against human BT-549 cells assessed as cell viability at 10 uM incubated for 48 hrs by sulforhodamine B assay relative to control
# Type: functional
# Condition Set: read-out: Activity
Hi! Could you tag entries with viability at 10 µM below 90% as Satisfied, and those at or above as Not satisfied? Much appreciated.

Below, 2 compounds whose answers are already recorded.
1. O=S(=O)(NCCCNc1nccc(-c2c(-c3cccc(F)c3)nc3sccn23)n1)c1ccc(Cl)cc1 = Satisfied
2. O=S(=O)(NCCNc1nccc(-c2c(-c3cccc(F)c3)nc3sccn23)n1)c1ccc(Cl)cc1 = Satisfied

Is 90% strictly greater than the compound's reported viability at 10 µM? compound: `O=S(=O)(NCCCNc1nccc(-c2c(-c3cccc(F)c3)nc3sccn23)n1)c1ccc(C(F)(F)F)cc1`
Not satisfied

In plain terms, does `O=C(NCCNc1nccc(-c2c(-c3cccc(F)c3)nc3sccn23)n1)C1CCCCC1` come in under 90% for viability at 10 µM?
Not satisfied

Find out if reported viability at 10 µM for `O=S(=O)(NCCNc1nccc(-c2c(-c3cccc(F)c3)nc3sccn23)n1)c1cccc2ccccc12` is less than 90%
Not satisfied

Problem: For the compound `O=C(NCCNc1nccc(-c2c(-c3cccc(F)c3)nc3sccn23)n1)c1c(F)cccc1F` , is viability at 10 µM under 90%?
Satisfied

Data provenance: ChEMBL document CHEMBL4665642
